Origin of measurements: patent US20120121540A1

test: HCV replicon assay (luciferase reporter, ET cell line); assay type: cell-based; settings: Hepatitis C virus, HCV replicon luciferase activity in ET cells
Answer each item with its documented inhibition at 10 µM.
Give bare numbers, in %.

As a guide, the following entries are already answered.
Compound: CC(=O)NCc1c(-c2ccoc2)cc(C(F)(F)F)c2nc(C(=O)N3CCC(c4cccc(F)c4)C3)cn12 (stereo not shown)
Recorded Value: 60.8
//
Compound: Fc1cccc(C2CCN(Cc3cn4cc(-c5ccoc5)cc(C(F)(F)F)c4n3)C2)c1 (stereo not shown)
Recorded Value: 0.7
//
Compound: O=C(c1nc2c(C(F)(F)F)cc(-c3ccoc3)cn2c1Cl)N1CCCCC1c1cccc(F)c1 (stereo not shown)
Recorded Value: 70.2

# input State the recorded inhibition at 10 µM for this entry: CC1(C)CCCN1C(=O)c1nc2c(C(F)(F)F)cc(-c3ccoc3)cn2c1Cl
# output 34.4
